- assay_procedure: ATG_MRE_CIS: Attagene CIS-FACTORIAL HepG2 Assay for human Metal Responsive Element (MRE) (AID 2282954)
- measurement_setup: HepG2 MRE cis-reporter transcription, Attagene multiplex; actives raise or lower the signal
Activity calls are given as the source filed them. The calls were made as follows: active = hit-call score of the fitted dose curve at least 0.9, where 1 is the maximum; inactive = score below 0.9.
Entry note: the call must match one of active, inactive

Req: Outcome? FC(F)=C(F)OC(F)(F)C(F)(F)C(F)(F)F
Resp: inactive

Req: For this molecule, state the assay outcome: CC(C)c1ccc2c(c1)CC[C@H]1[C@](C)(CN)CCC[C@]21C
Resp: active

Req: Please let me know the test result on file for C/C=C\C/C=C/CCCCCCCCOC(C)=O .
Resp: active

Req: Identify the outcome logged in this assay for the molecule shown: CC1(C)[C@H]2CC[C@]1(C)C(=O)C2
Resp: inactive

Req: Please let me know the test result on file for CC(=O)NS(=O)(=O)c1ccc(N)cc1 .
Resp: inactive

Req: Outcome? CC=CC(=O)N(CC)c1ccccc1C
Resp: inactive

Req: How did this test come out for O=C(Oc1ccccc1)c1ccc2ccccc2c1O ?
Resp: active

Req: // return assay outcome for C=CC=CC=CCCCCC
Resp: inactive

Req: So what was the verdict on COCc1c(C(C)C)nc(C(C)C)c(/C=C/[C@@H](O)C[C@@H](O)CC(=O)O)c1-c1ccc(F)cc1 in this test?
Resp: active

Req: Short answer needed: outcome of this test for O=C(C=Cc1ccccc1)OCc1ccccc1 ?
Resp: inactive

Req: Lab log entry: C=C(C)CCO — outcome as called in the assay?
Resp: inactive

Req: Name the outcome recorded for CN(C)c1ccc(C(=N)c2ccc(N(C)C)cc2)cc1 in the assay.
Resp: active

Req: State the result this test recorded for CC(C)(c1cc(Br)c(OCCO)c(Br)c1)c1cc(Br)c(OCCO)c(Br)c1 .
Resp: active

Req: Identify the outcome logged in this assay for the molecule shown: O=C(Nc1ccccc1SSc1ccccc1NC(=O)c1ccccc1)c1ccccc1
Resp: inactive

Req: Hi, do you know how Cc1ccc(N/N=c2\c(=O)cc/c(=N/Nc3ccc(S(=O)(=O)O)cc3)c2=O)c(C)c1 came out in this test?
Resp: inactive

Req: Dear all, I need the recorded test outcome for CC=CC(F)(F)C(F)(F)C(F)(F)F , thank you.
Resp: inactive

Req: # outcome recorded in this test, key = CC(C)(C)c1ccc(-c2ccc(C(C)(C)C)cc2)cc1
Resp: inactive

Req: # fetch the recorded call for CC1=CC[C@H](C(C)C)C=C1 here
Resp: active

Req: Query: recorded result category for c1ccc(CNCc2ccccc2)cc1 in this test
Resp: inactive

Req: # lookup: test call for CC(C)(C)c1ccc(N)cc1
Resp: inactive

Req: Please let me know the test result on file for NC(CO)(CO)CO .
Resp: inactive

Req: What call does the record list for Clc1nc2ccccc2s1 ?
Resp: inactive

Req: For CC(C)c1ccc(C#N)cc1 , what call appears in the results of this test?
Resp: inactive

Req: Hey, what did the test say about CCCCCC(C)O (stereo not drawn) ?
Resp: inactive

Req: I would be grateful if you could indicate the recorded call for CCCCNc1ccc(NCCCC)c2c1C(=O)c1ccccc1C2=O .
Resp: inactive

Req: Which result was noted for this molecule in the test: CCCCC/C=C\CCC=O
Resp: inactive

Req: Answer briefly: the call reported for SCCc1cnccn1 in this assay.
Resp: inactive

Req: Hey, what did the test say about Cc1cc(=O)n(-c2ccccc2)n1C ?
Resp: inactive

Req: Check the results log: what was the call for CCCCC(CC)COC(=O)c1ccccc1 (stereo not drawn) ?
Resp: inactive

Req: Outcome? CC(=O)OCC(C)OC(C)=O (stereo not drawn)
Resp: inactive

Req: # lookup: test call for CC(C)c1ccc(C=O)cc1
Resp: inactive

Req: Could you please tell me the result logged for CCCCCc1ccc(Cl)cc1 in this assay?
Resp: inactive

Req: Query: recorded result category for CC(C)(C)C1CCCCC1=O (stereo not drawn) in this test
Resp: inactive

Req: Short answer needed: outcome of this test for CCc1c(C(=O)O)c(=O)cnn1-c1ccc(Cl)cc1 ?
Resp: inactive

Req: What call does the record list for Cc1cc(C)c(C(=O)O)c(C)c1 ?
Resp: inactive

Req: Kindly provide the recorded test outcome for the following molecule: O=C1c2ccccc2C(=O)C1c1nc2ccccc2c(Br)c1O
Resp: inactive

Req: Per the records of this test, what outcome belongs to CC(C)CCCC(C)CC=O (stereo not drawn) ?
Resp: inactive

Req: // return assay outcome for C=CC(=O)OCCC(=O)O
Resp: inactive

Req: Per the assay record, what outcome was assigned to O=S(=O)(O)c1ccccc1C=Cc1ccc(-c2ccc(C=Cc3ccccc3S(=O)(=O)O)cc2)cc1 ?
Resp: inactive

Req: Please let me know the test result on file for C[C@]12CCC(=O)C=C1CC[C@@H]1[C@@H]2C(=O)C[C@@]2(C)[C@H]1CC[C@]2(O)C(=O)CO .
Resp: inactive

Req: Please share the test call associated with C=C(C)C(=O)OCCO .
Resp: inactive

Req: // param item: CC(C)=CCCC(C)C=O (stereo not drawn) ; yields the recorded call
Resp: inactive

Req: Look up the recorded call for NC(=O)N=NC(N)=O in this test.
Resp: inactive

Req: Give the logged outcome of this assay for the following molecule: COc1ccc(-c2coc3cc(O)ccc3c2=O)cc1
Resp: inactive

Req: Record request — test call for CC(C)(C)c1n[nH]c(=O)n(N)c1=O
Resp: inactive

Req: Test call, this molecule: CCOc1ccc(N)c([N+](=O)[O-])c1
Resp: inactive

Req: So what was the verdict on C[Si](C)(C)O[Si](O)(O)O in this test?
Resp: inactive

Req: What call does the record list for Cc1cccc(N(C)C(=S)Oc2ccc3ccccc3c2)c1 ?
Resp: active

Req: What did the test return for C=C1C2CCC(C2)C1(C)C (stereo not drawn) ?
Resp: inactive

Req: # fetch the recorded call for CO[Si](CCC1CCC2OC2C1)(OC)OC (stereo not drawn) here
Resp: inactive

Req: Answer briefly: the call reported for C=CC(=O)OCCOC1C2CCC1C1CC=CC12 (stereo not drawn) in this assay.
Resp: inactive

Req: I would be grateful if you could indicate the recorded call for Nc1ccc(Cl)cc1Cl .
Resp: inactive

Req: Tell me the assay call for CC(C)=CCC/C(C)=C\C#N please.
Resp: inactive

Req: For CCOC(F)(F)C(F)(F)C(F)(F)C(F)(F)F , what call appears in the results of this test?
Resp: inactive

Req: Which outcome did this test record for the molecule OC1CCCC1 ?
Resp: inactive

Req: Given CN(C)c1ccc(N=Nc2ccccc2C(=O)O)cc1 , state the outcome it received in this test.
Resp: active

Req: Which outcome was entered for the molecule O=S(=O)(Oc1ccc(Cl)cc1Cl)c1ccccc1 in this test?
Resp: active

Req: Please indicate how the test categorized CCC(CC)C(=O)O .
Resp: inactive

---

- Read-out: Collagen I, COL1A1 (gene 1277)
- assay_procedure: BSK_MyoF_CollagenI: BioMAP Diversity Plus: MyoF Assay for Collagen I Biomarker Activity (AID 2284238)
- measurement_setup: primary human lung fibroblasts
Activity calls are given as the source filed them. Rule for the calls: active = hit-call score of the fitted dose curve at least 0.9, where 1 is the maximum; inactive = score below 0.9.
Your response should consist of one outcome taken from TRUE for active, FALSE for inactive

Req: Please indicate how the test categorized CCO[Si](CCCN=C=O)(OCC)OCC .
Resp: FALSE

Req: For CC(C)(c1cc(Br)c(OCCO)c(Br)c1)c1cc(Br)c(OCCO)c(Br)c1 , what call appears in the results of this test?
Resp: TRUE

Req: Test call for this molecule, please: c1ccc2c(c1)ccc1cc3c(ccc4ccccc43)cc12
Resp: FALSE

Req: I would be grateful if you could indicate the recorded call for CCCCCCCCCCCCCCCC[N+](C)(C)CC .
Resp: TRUE

Req: Recorded test call requested for O=C(Cl)c1cc(C(=O)Cl)cc(C(=O)Cl)c1
Resp: TRUE

---

- experimental_target: Glucocorticoid receptor (Homo sapiens) (UniProt P04150)
- Sequence (P04150 whole entry, looked up): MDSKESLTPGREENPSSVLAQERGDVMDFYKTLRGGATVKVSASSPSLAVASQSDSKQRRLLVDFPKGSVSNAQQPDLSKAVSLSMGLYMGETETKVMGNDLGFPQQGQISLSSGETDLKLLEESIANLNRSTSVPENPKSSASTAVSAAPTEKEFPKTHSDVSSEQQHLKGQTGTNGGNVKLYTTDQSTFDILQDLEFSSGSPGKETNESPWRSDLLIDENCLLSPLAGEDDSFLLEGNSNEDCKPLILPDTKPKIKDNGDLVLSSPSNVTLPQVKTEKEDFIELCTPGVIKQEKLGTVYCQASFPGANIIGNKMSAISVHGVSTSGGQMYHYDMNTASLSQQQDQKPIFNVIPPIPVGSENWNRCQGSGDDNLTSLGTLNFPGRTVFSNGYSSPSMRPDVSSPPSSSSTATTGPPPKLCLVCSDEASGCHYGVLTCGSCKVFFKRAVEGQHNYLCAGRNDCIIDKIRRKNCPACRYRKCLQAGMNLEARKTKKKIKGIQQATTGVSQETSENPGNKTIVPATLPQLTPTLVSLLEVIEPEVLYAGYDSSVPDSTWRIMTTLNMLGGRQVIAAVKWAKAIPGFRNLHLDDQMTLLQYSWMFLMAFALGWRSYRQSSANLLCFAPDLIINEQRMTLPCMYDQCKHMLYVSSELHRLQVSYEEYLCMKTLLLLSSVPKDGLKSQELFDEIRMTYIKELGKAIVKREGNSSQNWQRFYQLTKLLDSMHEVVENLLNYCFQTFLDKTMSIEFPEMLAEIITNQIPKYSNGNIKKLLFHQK
- assay_procedure: NVS_NR_hGR: NovaScreen (NVS) Nuclear Receptor Binding Assay for human Glucocorticoid Receptor (GR) (AID 2283363);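 also: activity is loss of specific radioligand binding signal relative to DMSO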
Results filed as inconclusive are left out. Calls of active or inactive are those of the source. The calls were made as follows: active = hit-call score of the fitted dose curve at least 0.9, where 1 is the maximum; inconclusive = response in the unintended direction; inactive = score below 0.9.
Can you tell me AC50 for the items I'm about to list?

Consider C#CC1(O)CC[C@H]2[C@@H]3CCC4=CCCC[C@@H]4[C@H]3CC[C@@]21C (some centres undefined) . Its measured AC50 is 5.07 µM (active)

The measured AC50 associated with O=C(Nc1ccccc1SSc1ccccc1NC(=O)c1ccccc1)c1ccccc1 reads 11.3 µM (active)

What the record says about CC(C)c1ccc2c(C(C)C)cc(C(C)C)c(S(=O)(=O)O)c2c1 : AC50 is 10.9 µM (active)

Lookup result for CCCCCCCCCCCCCCCC[N+](C)(C)CC ; measured AC50: 2.81 µM (active)
